- Study System: SLC22A7
- Assay: pooled miR-30 sensor sort-seq; sequence = guide strand; also: reference of the scale not given here
- Recorded Conditions: shRNA
# sensor-assay potency score (higher = more potent) >= 0.08 gives t, anything below gives f

For orientation, consider the following solved cases.
• TAGGGTACAACTCTGAAGTGAA = t
• TTCTGAGTGGTCGTACTCCCAG = f
• TAATAGGAGAAGTTCACTCCGA = t
• TTATTTACAGAATCCTCCCCAA = f

Now look at this entry.
Hi, just wondering whether TTTATTTACAGAATCCTCCCCA shows sensor-assay potency score (higher = more potent) of 0.08 or higher. t

###

- Study System: PPY
- Assay: pooled miR-30 sensor sort-seq; sequence = guide strand
- Recorded Conditions: shRNA
Experimental Readout: sensor-assay potency score (higher = more potent)
Give the figure by itself; no unit, no explanation.

- AGCATGTTGATGTATCTACGGA: -1.31
- TGTATCTACGGAGATCAGCTGC: 0.303

If you can, please state the reported sensor-assay potency score (higher = more potent) value of TACTGGGCCATCTGCTCTGGTG . -1.25

If you can, please state the reported sensor-assay potency score (higher = more potent) value of TGATGTATCTACGGAGATCAGC . -1.04

If you can, please state the reported sensor-assay potency score (higher = more potent) value of TCCTCTTTGTGTCTTTTCCCAT . -1.36

If you can, please state the reported sensor-assay potency score (higher = more potent) value of ATCAGCTGCATACTGGGCCATC . -1.61

If you can, please state the reported sensor-assay potency score (higher = more potent) value of TAACAGAGCCACGCAGGTGGAC . -1.08
